# target or system: UniProtKB Q06124
# procedure text: SHP2 Biochemical Assay (DiFMUP conversion, pIRS1 activating peptide)
# experimental parameters: DiFMUP substrate, 0.25 μM pIRS1 peptide, 30 min pre-incubation; average where more than one data point; read-out: SHP2 (IC50)
pIC50: −log10 of the molar value. Counter-ions that a name gives are not always drawn.
Reported values of pIC50 for individual entries
value kind: pIC50

INSERT INTO measurements (molecule, recorded_measurement) VALUES
  ('Cc1nc2c(-c3ccc4nn(C)cc4c3Cl)c[nH]c2nc1N1[C@@H]2CC[C@H]1C[C@H](N)C2', 8.00),
  ('Cc1nc2c(-c3ccc4nn(C)cc4c3Cl)c[nH]c2nc1N1CCC(C)(CN)CC1 [Example 11, dihydrochloride salt]', 7.37),
  ('Cc1nc2c(-c3ccc4nn(C(C)C)c(C#N)c4c3Cl)n[nH]c2nc1N1[C@H]2CC[C@@H]1[C@@H](F)[C@@H](N)C2 [Example 145, hydrochloride]', 7.44),
  ('CCOc1cnc2ccc(-c3n[nH]c4nc(N5[C@H]6CC[C@@H]5[C@@H](F)[C@@H](N)C6)c(CO)nc34)c(Cl)c2n1', 7.89),
  ('Cn1cc2c(Cl)c(-c3c[nH]c4nc(N5[C@@H]6CC[C@H]5C[C@@](C)(N)C6)cnc34)ccc2n1', 7.77),
  ('N[C@H]1C[C@@H]2CC[C@H]([C@H]1F)N2c1nc2[nH]nc(-c3ccc4ncc(N5CCC5)nc4c3Cl)c2nc1CO', 7.82),
  ('COc1cnc2ccc(-c3n[nH]c4nc(N5[C@@H]6CC[C@H]5CNC6)c(CO)nc34)c(Cl)c2n1', 7.92),
  ('COc1cnc2ccc(-c3n[nH]c4nc(N5CCC(C)(N)CC5)c(C)nc34)c(Cl)c2n1', 7.60),
  ('Cn1cnc2ccc(-c3c[nH]c4nc(N5CC[C@H](N)[C@H](F)C5)cnc34)c(Cl)c21', 7.05),
  ('Cn1ccc2c(Cl)c(-c3c[nH]c4nc(N5CC[C@H](N)[C@H](F)C5)cnc34)ccc2c1=O [Example 71, hydrochloride salt]', 7.26),
  ('CCn1nc2ccc(-c3n[nH]c4nc(N5[C@H]6CC[C@@H]5[C@@H](F)[C@@H](N)C6)c(CO)nc34)c(Cl)c2c1C#N', 8.01),
  ('COc1cnc2ccc(-c3n[nH]c4nc(N5[C@@H]6CC[C@H]5CNC6)c(C)nc34)c(Cl)c2n1', 7.85),
  ('COc1cnc2ccc(-c3c[nH]c4nc(N5[C@@H]6CC[C@H]5C[C@@H](N)C6)cnc34)c(Cl)c2n1 [Example 107, hydrochloride]', 7.66),
  ('Cn1nc2ccc(-c3c[nH]c4nc(N5[C@@H]6CC[C@H]5C[C@H](N)C6)cnc34)c(Cl)c2c1Cl [Example 41, hydrochloride salt]', 8.44),
  ('Cn1nc2ccc(-c3n[nH]c4nc(N5[C@@H]6CC[C@H]5[C@H](F)[C@@H](N)C6)c(CO)nc34)c(Cl)c2c1Cl', 7.82),
  ('CN(C)c1ccc2ccc(-c3c[nH]c4nc(N5[C@@H]6CC[C@H]5C[C@@H](N)C6)cnc34)c(Cl)c2n1 [Example 22, hydrochloride salt]', 7.59),
  ('Cn1cc2c(Cl)c(-c3c[nH]c4nc(N5CCC(N)(CO)CC5)cnc34)ccc2n1', 7.64),
  ('Cn1nc2ccc(-c3n[nH]c4nc(N5[C@@H]6CCC[C@H]5CNC6)c(CO)nc34)c(Cl)c2c1Cl', 8.15),
  ('Cc1nc2ccc(-c3n[nH]c4nc(N5[C@@H]6CC[C@H]5[C@@H](F)[C@@H](N)C6)c(CO)nc34)c(Cl)c2s1', 8.11),
  ('CN(C)c1cnc2ccc(-c3n[nH]c4nc(N5[C@H]6CC[C@@H]5[C@@H](F)[C@@H](N)C6)c(CO)nc34)c(Cl)c2n1', 8.28),
  ('CC(C)(C)NC(=O)Cn1cc2c(Cl)c(-c3c[nH]c4nc(N5[C@@H]6CC[C@H]5C[C@@H](N)C6)cnc34)ccc2n1', 7.92),
  ('Cn1cc2c(Cl)c(-c3c[nH]c4nc(N5C6CCC5CNC6)cnc34)ccc2n1', 7.59),
  ('Cc1nc2c(-c3ccc4ncc(N(C)C)nc4c3Cl)n[nH]c2nc1N1C2CCC1CNC2', 7.68),
  ('Cc1nc2c(-c3ccc4nn(C)cc4c3Cl)n[nH]c2nc1N1CC[C@H](N)[C@H](F)C1 [Example 75, hydrochloride]', 6.89),
  ('Cc1c(-c2n[nH]c3nc(N4[C@@H]5CC[C@H]4[C@@H](F)[C@@H](N)C5)c(CO)nc23)ccc2nn(C)c(Cl)c12', 7.89),
  ('Cn1cc2c(Cl)c(-c3c[nH]c4nc(N5CC[C@@H](N)[C@H](F)C5)cnc34)ccc2n1 [Example 29, hydrochloride salt]', 7.39),
  ('Cn1cc2c(Cl)c(-c3c[nH]c4nc(N5[C@H]6CC[C@@H]5[C@@H](F)[C@H](N)C6)cnc34)ccc2n1', 7.24);

----------
# target or system: SHP2 (Homo sapiens (Human))
# Sequence (Q06124 whole entry): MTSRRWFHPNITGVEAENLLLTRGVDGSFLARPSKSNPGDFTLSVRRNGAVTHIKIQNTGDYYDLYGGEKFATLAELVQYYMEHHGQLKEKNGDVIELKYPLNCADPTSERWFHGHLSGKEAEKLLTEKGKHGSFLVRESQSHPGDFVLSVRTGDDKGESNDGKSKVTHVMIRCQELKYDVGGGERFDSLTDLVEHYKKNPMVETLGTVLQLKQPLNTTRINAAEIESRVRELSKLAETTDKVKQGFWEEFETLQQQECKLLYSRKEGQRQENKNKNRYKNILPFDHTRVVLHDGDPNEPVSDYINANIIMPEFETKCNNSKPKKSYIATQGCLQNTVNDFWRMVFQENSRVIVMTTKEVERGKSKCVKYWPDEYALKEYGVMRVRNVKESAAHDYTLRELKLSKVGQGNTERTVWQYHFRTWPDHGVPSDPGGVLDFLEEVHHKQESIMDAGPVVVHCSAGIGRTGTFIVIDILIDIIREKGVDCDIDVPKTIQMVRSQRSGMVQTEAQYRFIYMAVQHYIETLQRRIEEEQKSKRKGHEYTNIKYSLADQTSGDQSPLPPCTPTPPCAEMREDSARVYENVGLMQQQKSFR
# procedure text: SHP2 Biochemical Assay (DiFMUP conversion, pIRS1 activating peptide)
# experimental parameters: DiFMUP substrate, 0.25 μM pIRS1 peptide, 30 min pre-incubation; average where more than one data point; read-out: SHP2 (IC50)
Where a name gives a salt, the structure may show the parent alone.
Checkbox rule: IC50 lower than 10 nM = rule met; IC50 not lower than 10 nM = rule not met.

INSERT INTO results (molecule, cat) VALUES
  ('CC(C)(O)Cn1cc2c(Cl)c(-c3c[nH]c4nc(N5[C@@H]6CC[C@H]5C[C@@H](N)C6)cnc34)ccc2n1 [Example 53]', 'rule not met'),
  ('Cn1cc2c(Cl)c(-c3c[nH]c4nc(N5[C@@H]6CC[C@H]5C[C@H](CN)C6)cnc34)ccc2n1 [Example 1]', 'rule not met'),
  ('Cc1nc2c(-c3ccc4ncc(N(C)C)nc4c3Cl)n[nH]c2nc1N1[C@H]2CC[C@@H]1[C@@H](F)[C@@H](N)C2 [Example 96]', 'rule met'),
  ('Cn1cc2c(Cl)c(-c3n[nH]c4nc(N5[C@H]6CC[C@@H]5[C@@H](F)[C@@H](N)C6)c(CO)nc34)ccc2n1 [Example 79]', 'rule met'),
  ('Cn1cc2c(Cl)c(-c3c[nH]c4nc(N5CC[C@H](N)[C@@H](F)C5)cnc34)ccc2n1 [Example 30, hydrochloride salt]', 'rule not met'),
  ('COCc1nc2ccc(-c3n[nH]c4nc(N5[C@H]6CC[C@@H]5[C@@H](F)[C@@H](N)C6)c(CO)nc34)c(Cl)c2s1 [Example 143]', 'rule met'),
  ('Cn1nc2ccc(-c3n[nH]c4nc(N5[C@@H]6CC[C@H]5C[C@@](C)(N)C6)c(CO)nc34)c(Cl)c2c1Cl [Example 116]', 'rule met'),
  ('Cc1cc(-c2c[nH]c3nc(N4[C@@H]5CC[C@H]4C[C@@H](N)C5)cnc23)c(Cl)c2cn(C)nc12 [Example 55]', 'rule not met'),
  ('N[C@H]1C[C@H]2CC[C@@H](C1)N2c1cnc2c(-c3ccc4[nH]c(=O)sc4c3Cl)c[nH]c2n1 [Example 23, hydrochloride salt]', 'rule met'),
  ('CC(C)Oc1cnc2ccc(-c3n[nH]c4nc(N5[C@H]6CC[C@@H]5[C@@H](F)[C@@H](N)C6)c(CO)nc34)c(Cl)c2n1 [Example 144]', 'rule not met'),
  ('Cn1ccc(Cn2cc3c(Cl)c(-c4c[nH]c5nc(N6[C@@H]7CC[C@H]6C[C@@H](N)C7)cnc45)ccc3n2)n1 [Example 70, trihydrochloride salt]', 'rule met'),
  ('Cn1nc2ccc(-c3c[nH]c4nc(N5[C@@H]6CC[C@H]5C[C@@H](N)C6)cnc34)c(Cl)c2c1CO [Example 37]', 'rule not met'),
  ('Cn1cc2c(Cl)c(-c3c[nH]c4nc(N5CCC6(CC5)CNC6)cnc34)ccc2n1 [Example 10]', 'rule not met'),
  ('N[C@H]1C[C@H]2CC[C@@H](C1)N2c1cnc2c(-c3ccc4ncsc4c3Cl)c[nH]c2n1 [Example 13]', 'rule met'),
  ('Cn1cc2c(Cl)c(-c3c[nH]c4nc(N5CCC6(CNC6)C(F)(F)C5)cnc34)ccc2n1 [Example 25, hydrochloride salt]', 'rule not met'),
  ('CCn1cc2c(Cl)c(-c3n[nH]c4nc(N5[C@H]6CC[C@@H]5[C@@H](F)[C@@H](N)C6)c(CO)nc34)ccc2n1 [Example 82]', 'rule not met'),
  ('COc1cnc2ccc(-c3n[nH]c4nc(N5[C@H]6CC[C@@H]5[C@@H](F)[C@@H](N)C6)c(CO)nc34)c(Cl)c2n1 [Example 84]', 'rule met'),
  ('Cn1nc2ccc(-c3c[nH]c4nc(N5[C@@H]6CC[C@H]5C[C@@H](N)C6)cnc34)c(Cl)c2c1C#N [Example 62]', 'rule met'),
  ('COc1cc2c(Cl)c(-c3n[nH]c4nc(N5[C@H]6CC[C@@H]5[C@@H](F)[C@@H](N)C6)c(CO)nc34)ccc2nc1C [Example 100]', 'rule not met'),
  ('Cn1cc2c(Cl)c(-c3c[nH]c4nc(N5CCC6(CCN6)CC5)cnc34)ccc2n1 [Example 16]', 'rule not met'),
  ('Cc1nc2c(-c3ccc4nn(C)cc4c3Cl)c[nH]c2nc1N1CCC(C)(N)CC1 [Example 14]', 'rule not met'),
  ('CN(C)C(=O)Cn1cc2c(Cl)c(-c3c[nH]c4nc(N5[C@@H]6CC[C@H]5C[C@@H](N)C6)cnc34)ccc2n1 [Example 49]', 'rule not met'),
  ('Cn1nc2ccc(-c3n[nH]c4nc(N5[C@@H]6CC[C@H]5[C@@H](F)[C@@H](N)C6)c(CO)nc34)c(F)c2c1Cl [Example 87]', 'rule met'),
  ('CC(C)n1cc2c(Cl)c(-c3n[nH]c4nc(N5[C@H]6CC[C@@H]5[C@@H](F)[C@@H](N)C6)c(CO)nc34)ccc2n1 [Example 101]', 'rule not met'),
  ('N[C@H]1C[C@H]2CC[C@@H](C1)N2c1cnc2c(-c3ccc4ccc(=O)[nH]c4c3Cl)c[nH]c2n1 [Example 35, hydrochloride salt]', 'rule not met'),
  ('N[C@H]1C[C@H]2CC[C@@H](C1)N2c1cnc2c(-c3ccc4c(c3Cl)C(F)(F)C(=O)N4)c[nH]c2n1 [Example 66, dihydrochloride salt]', 'rule met');

All values here come from patent US11466016B2.
